Just for reference, patent US20060160848A1 is where these values come from.

Consider the following compounds; for each one, report its pEC50.
Test system: mouse hepatocytes
Test: cells
Conditions: Hepatocyte, 1 h, read-out: PC50 (concentration producing a 50% decrease in LDH leakage)
Give bare numbers, as −log10 of the molar value.

>>> value_reported("NNCc1ccccc1 [benzylhydrazine]")
4.43
>>> value_reported("c1ccc(Nc2ccc(Nc3ccccc3)cc2)cc1 [N,N′-Diphenyl-p- phenylenediamine, N,N′-Diphenyl-p-phenylenediamine]")
5.40
>>> value_reported("C1CCC(NC2CCCCC2)CC1 [dicyclohexylamine]")
4.23
>>> value_reported("NN(c1ccccc1)c1ccccc1 [1,1-diphenylhydrazine]")
5.70
>>> value_reported("Nc1ccccc1O [o-aminophenol]")
4.74
>>> value_reported("NNc1ncnc2ccccc12 [hydrazinoquinazoline, 4-hydrazinoquinazoline]")
5.00
>>> value_reported("NNc1nncc2ccccc12 [hydralazine]")
4.74
>>> value_reported("c1ccc2c(c1)[nH]c1ccccc12 [carbazole]")
4.40
>>> value_reported("Nc1ccccc1 [aniline]")
4.21

// moving on: another record for pEC50
Answer with the recorded pEC50 for the compound listed here: c1ccc(NNc2ccccc2)cc1 [1,2-diphenylhydrazine]
4.72
